Assay: Caspase-3/7 induction in CHO-K1 cells by small molecules, qHTS assay (AID 1346980); also: % is scaled to controls: 0 for no effect and ±100 for the full control effect; nearly all actives have a fitted effect of over 15% in size
Conditions: CHO-K1 caspase-3/7 induction, Caspase-Glo luminescence, 17 h; series mostly up to 92.4 µM
Excerpt: National Center for Advancing Translational Sciences [NCATS] NIH Chemical Genomics Center [NCGC] U.S. Environmental Protection Agency [EPA] National Institutes of Environmental Health Sciences [NIEHS] National Toxicology Program [NTP] Apoptosis is a process of programmed cell death and plays a central role in the development of multicellular organisms. […]
The source made the active and inactive calls. Calls follow the shape of the dose curve; as a rule, active = well fitted activation curve with a large enough effect in the repeat runs; inconclusive = weak or mixed curves; inactive = flat fitted curve, though single readings scatter.
metric_name: caspase-3/7 activation

compound: O=C1C(=O)c2cccc3cccc1c23
reading: inactive
//
compound: CCCC(Cn1cncn1)c1ccc(Cl)cc1Cl (stereo not given)
reading: inactive
//
compound: NC(=O)CI
reading: inactive
//
compound: CC(C)=CCOc1c2occc2cc2ccc(=O)oc12
reading: inactive
//
compound: BrCC(Br)C1CCC(Br)C(Br)C1 (stereo not given)
reading: inactive
//
compound: N#CCC#N
reading: inactive
//
compound: O=Cc1ccc2c(c1)OCO2
reading: inactive
//
compound: CCn1cc[n+](C)c1
reading: inactive
//
compound: CCC(COC(=O)c1cc(OC)c(OC)c(OC)c1)(c1ccccc1)N(C)C (stereo not given)
reading: inactive
//
compound: CC(O)(CS(=O)(=O)c1ccc(F)cc1)C(=O)Nc1ccc(C#N)c(C(F)(F)F)c1 (stereo not given)
reading: inactive
//
compound: O=C(O)C1(c2ccc3c(c2)OC[C@H](Cc2ccc(-c4ccccc4)cc2)[C@H]3O)CCCC1
reading: inactive
//
compound: N#C/C(N)=C(/N)C#N
reading: inactive
//
compound: COC(=O)C(Cl)C(=O)OC
reading: inactive
//
compound: CCOP(=S)(OCC)Oc1nc(Cl)c(Cl)cc1Cl
reading: inactive
//
compound: CCCCC(O)(Cn1cncn1)c1ccc(Cl)cc1Cl (stereo not given)
reading: inactive
//
compound: O=C(OC1CCCCC1)c1ccccc1C(=O)OC1CCCCC1
reading: inactive
//
compound: COP(=O)(OC)O/C(=C/Cl)c1cc(Cl)c(Cl)cc1Cl
reading: inactive
//
compound: CC(c1ccc(O)cc1)(c1ccc(O)cc1)c1ccc(O)cc1
reading: inactive
//
compound: C[N+](C)(C)CCCl
reading: inactive
//
compound: NNC(=O)c1cccnc1
reading: inactive
//
compound: NCC(CC(=O)O)c1ccc(Cl)cc1 (stereo not given)
reading: -0.192% [at 0.349 µM] (inactive)
//
compound: CCOP(=S)(OCC)Oc1cc(Cl)c(Br)cc1Cl
reading: inactive
//
compound: C#CCOC(C(=O)OCCN(C)C)(c1ccccc1)c1ccccc1
reading: inactive
//
compound: c1ccc(C2CC2)c(OCC2=NCCN2)c1
reading: inactive
//
compound: [O-][Cl+]O
reading: inactive
//
compound: CCOc1nc(F)cc2nc(S(=O)(=O)Nc3c(Cl)cccc3Cl)nn12
reading: inactive
//
compound: Cc1ccccc1CCl
reading: inactive
//
compound: CCO[C@H]1O[C@@H]2OC3(C)CC[C@H]4[C@H](C)CC[C@@H]([C@H]1C)[C@@]24OO3
reading: inactive
//
compound: C=CCCl
reading: inactive
//
compound: CCOC(=O)[C@]1(c2ccccc2)Oc2ccccc2[C@@H]1N
reading: inactive
//
compound: NS(=O)(=O)C(F)(F)C(F)(F)C(F)(F)C(F)(F)C(F)(F)C(F)(F)C(F)(F)C(F)(F)F
reading: inactive
//
compound: O=C(N[C@H](c1ccccc1)[C@@H]1CN2CCC1CC2)c1c(Cl)ccc(C(F)(F)F)c1Cl
reading: inactive
//
compound: CCOP(=S)(OCC)SCn1nnc2ccccc2c1=O
reading: inactive
//
compound: O=C(O)c1ccccc1C(=O)Nc1cccc2ccccc12
reading: inactive
//
compound: O=C(O)CC(Cl)C(=O)O (stereo not given)
reading: inactive
//
compound: COP(=S)(OC)Oc1cc(Cl)c(I)cc1Cl
reading: inactive
//
compound: O=C1c2ccccc2C(=O)C1C(=O)C(c1ccccc1)c1ccccc1
reading: inactive
//
compound: COP(=S)(OC)Oc1ccc([N+](=O)[O-])cc1Cl
reading: inactive
//
compound: C=CCOC(C)=O
reading: inactive
//
compound: CC1C(=O)C[C@]2(C(C)C)C[C@H]12 (stereo not given in full)
reading: inactive
//
compound: ClCCCCBr
reading: inactive
//
compound: COc1cc(Cl)c(OC)cc1Cl
reading: inactive
//
compound: CCCCN(N=O)C(=N)N[N+](=O)[O-]
reading: inactive
//
compound: NC(=O)C(Cl)(Cl)Cl
reading: inactive
//
compound: CC(C)(OO)c1ccccc1
reading: inactive
//
compound: ClCc1cccc(Cl)c1
reading: inactive
//
compound: CN1C[C@H](CNC(=O)OCc2ccccc2)C[C@@H]2c3cccc4c3c(cn4C)C[C@H]21
reading: inactive
//
compound: CS/C(C)=N/OC(=O)N(C)SN(C)C(=O)O/N=C(\C)SC
reading: inactive
//
compound: O=C1CN=C(c2ccccc2)c2cc(Cl)ccc2N1CC1CC1
reading: inactive
//
compound: Brc1ccccc1
reading: inactive
//
compound: O=C1NCN(c2ccccc2)C12CCN(CCCOc1ccc(F)cc1)CC2
reading: inactive
//
compound: C=CC[C@]1(O)CC[C@H]2[C@@H]3CCC4=CC(=O)CCC4=C3C=C[C@@]21C
reading: inactive
//
compound: O=S(=O)(O)C(F)(F)C(F)(F)C(F)(F)C(F)(F)F
reading: inactive
//
compound: O=C(Nc1ccccc1)Nc1ccnc(Cl)c1
reading: inactive
//
compound: Clc1cc(C(Cl)(Cl)Cl)cnc1Cl
reading: inactive
